Just for reference, patent US11299460B2 is where these values come from.

# system-tested: GST-hMDM2 (aa1-188) (Homo sapiens)
# Construct: The amino acid residues 1-188 of human MDM2 were expressed as GST-hMDM2 fusion protein
# Sequence (Q00987 1-188): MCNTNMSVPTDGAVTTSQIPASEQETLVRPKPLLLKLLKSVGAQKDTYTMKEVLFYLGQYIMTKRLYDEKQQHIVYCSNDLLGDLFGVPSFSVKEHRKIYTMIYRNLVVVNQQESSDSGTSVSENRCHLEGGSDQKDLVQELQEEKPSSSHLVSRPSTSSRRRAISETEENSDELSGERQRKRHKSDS
# test: Homogeneous time resolved fluorometry (HTRF assay), hMDM2/p53 interaction
# test-conditions: HTRF analysis; GST-hMDM2 (aa1-188) / biotinylated-p53 (aa1-83)
// reported IC50 per item

- compound: "COc1ccc(S(=O)(=O)NC(=O)C[C@@]2(C)C[C@H](c3cccc(Cl)c3)[C@@H](c3ccc(Cl)cc3)N([C@H](CS(=N)(=O)C(C)C)C(C)C)C2=O)cc1 (some centres unmarked)"
  IC50: "10 to 100 nM"
- compound: "CN=S(=O)(C[C@H](C(C)C)N1C(=O)[C@@](C)(CC(=O)O)C[C@H](c2cccc(Cl)c2)[C@H]1c1ccc(Cl)cc1)C(C)C (some centres unmarked)"
  IC50: "< 10 nM"
- compound: "CC(C)[C@@H](CS(=N)(=O)C(C)C)N1C(=O)[C@@](C)(CC(=O)NS(=O)(=O)c2ccc(F)cc2)C[C@H](c2cccc(Cl)c2)[C@H]1c1ccc(Cl)cc1 (some centres unmarked)"
  IC50: "10 to 100 nM"
- compound: "CCOC(=O)N=S(=O)(C[C@H](C(C)C)N1C(=O)[C@@](C)(CC(=O)Nc2ccc(C(=O)O)c(OC)c2)C[C@H](c2cccc(Cl)c2)[C@H]1c1ccc(Cl)cc1)C(C)C (some centres unmarked)"
  IC50: "< 10 nM"
- compound: "CC(=O)N=[S@@](=O)(C[C@H](C(C)C)N1C(=O)[C@@](C)(CC(=O)O)C[C@H](c2cccc(Cl)c2)[C@H]1c1ccc(Cl)cc1)C(C)C"
  IC50: "< 10 nM"
